SYSTEM: Protein Wnt-3a (Mus musculus)
Sequence (P27467 whole entry): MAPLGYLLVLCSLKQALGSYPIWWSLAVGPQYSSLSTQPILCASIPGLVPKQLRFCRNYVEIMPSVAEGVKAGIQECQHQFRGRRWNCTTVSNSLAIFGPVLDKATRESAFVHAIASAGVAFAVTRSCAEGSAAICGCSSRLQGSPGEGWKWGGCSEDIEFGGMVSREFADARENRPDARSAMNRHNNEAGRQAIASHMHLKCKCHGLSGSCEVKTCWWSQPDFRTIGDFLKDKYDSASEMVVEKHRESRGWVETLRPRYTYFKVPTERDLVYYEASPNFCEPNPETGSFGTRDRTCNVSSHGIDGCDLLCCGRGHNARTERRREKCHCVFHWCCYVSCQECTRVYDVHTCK
ASSAY NOTES: Wnt3a-driven reporter signaling inhibition, dose response, selectivity assay for Gli-SUFU antagonist project, Wnt-LIGHT cells, luminescence (AID 651570);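 further: Wnt-LIGHT reporter cells stimulated with conditioned medium from Wnt3a-producing cells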
Format: functional
CONDITION: read-out: IC50_Mean
The source made the active and inactive calls.
OUTCOME MEASURE: IC50

CC(C)n1c(-c2ccco2)cs/c1=N/c1cccnc1 | 10.5 µM (active)

Query: So what does the record say about IC50 for CC(C)(C)c1ccc(-n2ncc3c2CCCC3NC(=O)CCN2CCCC2=O)cc1 (centres undefined) ?
Response: 0.973 µM (active)

Query: So what does the record say about IC50 for COc1ccc2c(c1)c(C)cc[n+]2Cc1ccccc1 ?
Response: 2.07 µM (active)

Query: So what does the record say about IC50 for c1ccc(-c2cn3c([n+]2-c2ccccc2)CCC3)cc1 ?
Response: 5.16 µM (active)

====

SYSTEM: SUMO-activating enzyme (Homo sapiens, UniProt Q9UBT2)
Sequence (Q9UBE0 whole entry): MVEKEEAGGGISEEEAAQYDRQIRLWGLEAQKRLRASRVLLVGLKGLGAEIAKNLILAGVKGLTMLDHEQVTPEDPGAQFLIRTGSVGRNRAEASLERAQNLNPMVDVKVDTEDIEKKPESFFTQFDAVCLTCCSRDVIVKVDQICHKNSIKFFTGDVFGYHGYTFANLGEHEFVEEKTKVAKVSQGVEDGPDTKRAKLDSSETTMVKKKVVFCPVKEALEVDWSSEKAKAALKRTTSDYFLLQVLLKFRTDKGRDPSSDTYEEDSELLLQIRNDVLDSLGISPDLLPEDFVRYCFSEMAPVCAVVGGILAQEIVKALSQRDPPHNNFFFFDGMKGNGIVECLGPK
Sequence (Q9UBT2 whole entry): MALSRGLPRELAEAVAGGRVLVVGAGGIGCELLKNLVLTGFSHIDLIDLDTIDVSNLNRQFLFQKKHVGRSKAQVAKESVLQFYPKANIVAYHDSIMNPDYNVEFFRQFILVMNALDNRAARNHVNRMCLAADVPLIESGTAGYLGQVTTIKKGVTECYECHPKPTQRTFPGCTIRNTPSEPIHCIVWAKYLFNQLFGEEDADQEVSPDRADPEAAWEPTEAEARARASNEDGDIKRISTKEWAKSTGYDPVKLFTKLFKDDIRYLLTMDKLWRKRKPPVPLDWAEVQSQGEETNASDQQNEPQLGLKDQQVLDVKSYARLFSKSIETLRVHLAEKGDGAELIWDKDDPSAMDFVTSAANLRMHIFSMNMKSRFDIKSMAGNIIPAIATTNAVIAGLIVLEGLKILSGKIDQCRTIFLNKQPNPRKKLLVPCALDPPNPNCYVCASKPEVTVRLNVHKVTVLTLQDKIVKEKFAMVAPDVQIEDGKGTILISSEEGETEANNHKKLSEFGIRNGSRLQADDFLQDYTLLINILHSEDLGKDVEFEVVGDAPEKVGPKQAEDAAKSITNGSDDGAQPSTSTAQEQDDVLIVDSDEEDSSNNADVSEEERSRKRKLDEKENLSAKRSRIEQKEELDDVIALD
ASSAY NOTES: inhibitors of in vitro SUMOylation cascade, primary screen, biochemical, HTRF, uHTS (AID 2006)
Assay type: protein-complex assay
Activity calls are given as the source filed them.
OUTCOME MEASURE: IC50

Solved entries (count: 3):
CCOc1ccc(NC(=O)c2ccc(NC(=O)c3ccc(CN4CCOCC4)cc3)cc2)cc1 | 25.1 µM (active)
N=c1c(S(=O)(=O)c2ccc(Br)cc2)cc2c(=O)n3ccccc3nc2n1Cc1ccco1 | 4.16 µM (active)
Cc1cc(C)n(Cc2ccc(C(=O)N/N=C/c3ccc(-c4ccc([N+](=O)[O-])cc4)o3)o2)n1 | 33 µM (active)

Here's the next entry for you.
Query: Hello, I am looking for reported IC50 with SUMO-activating enzyme (Homo sapiens, UniProt Q9UBT2) for O=C(O)c1cccc(Cn2c(Cl)c(/C=N/NC(=O)c3cc4ccccc4cc3O)sc2=O)c1 . Could you help?
Response: 24.1 µM (active)

====

Glyceraldehyde-3-phosphate dehydrogenase (Homo sapiens, UniProt P04406) measurements of IC50, listed per entry.
Sequence (P04406 whole entry): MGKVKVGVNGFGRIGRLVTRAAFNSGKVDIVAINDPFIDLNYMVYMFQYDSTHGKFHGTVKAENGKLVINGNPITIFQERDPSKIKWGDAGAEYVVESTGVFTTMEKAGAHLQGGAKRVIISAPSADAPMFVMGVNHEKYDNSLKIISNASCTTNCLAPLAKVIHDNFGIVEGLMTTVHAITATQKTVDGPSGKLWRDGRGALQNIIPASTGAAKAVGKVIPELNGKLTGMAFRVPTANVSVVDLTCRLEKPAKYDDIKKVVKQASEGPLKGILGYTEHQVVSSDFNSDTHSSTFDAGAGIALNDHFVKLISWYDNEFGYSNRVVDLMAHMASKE

Query: So what does the record say about IC50 for NC(=O)[C@H](Cc1ccccc1)n1c(=O)n(Cc2ccc(Br)cc2)c(=O)n(-c2ccccc2)c1=O ?
Response: > 100 µM (not active)

Query: So what does the record say about IC50 for CCN1CCN(C2=C(Cl)C(=O)N(c3ccc(Cl)nc3)C2=O)CC1 ?
Response: > 100 µM (not active)

Query: So what does the record say about IC50 for Nc1cc(-c2ccccc2)nn1S(=O)(=O)c1c(F)c(F)c(F)c(F)c1F ?
Response: > 100 µM (not active)

Query: So what does the record say about IC50 for COc1cccc(N2CCN(C3=C(Cl)C(=O)N(c4cccc(OC)c4)C3=O)CC2)c1 ?
Response: > 50 µM (inconclusive)

====

SYSTEM: Protein RecA (Mycobacterium tuberculosis)
ASSAY NOTES: Fluorescence Cell-Free Homogeneous Dose Retest to Identify Inhibitors of RecA-Intein Splicing Activity. [Related pubchem assays (depositor defined):AID2097, AID2223, AID489010, AID492950]
Assay type: functional
Calls of active or inactive are those of the source.
EC50 reference

Solved entries (count: 3):
CC(C)N=C(S)NC1(C)CCS(=O)(=O)C1 (centres undefined) | > 380 µM (inactive)
O=Nc1c(O)c2ccccc2c2ccccc12 | 5.3 µM (active)
COc1c(O)ccc2c1CN1CCc3cc4c(cc3C1C2)OCO4 (centres undefined) | 14 µM (active)

Query: So what does the record say about EC50 for COc1ccc(/C=C2/C(=O)N(c3ccccc3)N=C2C)cc1Br ?
Response: 2.3 µM (active)

Query: So what does the record say about EC50 for Cc1ccc(S(=O)(=O)N2CCN(C(=O)c3ccccc3Cc3ccccc3)CC2)c(C)c1 ?
Response: 208 µM (active)

Query: So what does the record say about EC50 for O=C(CCl)N(Cc1ccccc1)c1ccccc1 ?
Response: 0.813 µM (active)

Query: So what does the record say about EC50 for Cc1ccc(-n2nc(C)c3c2OC(N)=C(C#N)C3c2ccccc2F)cc1 (centres undefined) ?
Response: 24 µM (inconclusive)

Query: So what does the record say about EC50 for Cc1n[nH]c2c1C(c1ccc3c(c1)OCO3)C(C#N)=C(N)O2 (centres undefined) ?
Response: 6.16 µM (active)

Query: So what does the record say about EC50 for Cc1cc(C)cc(Cn2ncc(Cl)c(Cl)c2=O)c1 ?
Response: 0.985 µM (active)

Query: So what does the record say about EC50 for Cc1ccc(SCc2n[nH]c3c2C(c2ccc(C)o2)C(C#N)=C(N)O3)cc1 (centres undefined) ?
Response: 7.85 µM (active)

Query: So what does the record say about EC50 for NC1=NN(c2cccc(C(=O)O)c2)C(=O)C1 ?
Response: 23.7 µM (inconclusive)

Query: So what does the record say about EC50 for NC(=O)C1CCN(C2=C(Cl)C(=O)c3ccccc3C2=O)CC1 ?
Response: 0.146 µM (active)

Query: So what does the record say about EC50 for CC1=NN(c2ccccc2)C(=O)/C1=C\c1cn(CCC#N)nc1-c1ccc(Cl)cc1 ?
Response: 2.77 µM (active)

Query: So what does the record say about EC50 for CCCc1n[nH]c2c1C(c1ccc(OCCN3CCOCC3)c(OCC)c1)C(C#N)=C(N)O2 (centres undefined) ?
Response: 10 µM (active)

Query: So what does the record say about EC50 for CC1=NN(c2ccc(C(=O)O)c(N)c2)C(=O)C1 ?
Response: 1.98 µM (active)

Query: So what does the record say about EC50 for O=C1C(Cl)=C(N2CCOCC2)C(=O)N1c1ccc(Br)cc1 ?
Response: 2.11 µM (active)

Query: So what does the record say about EC50 for O=c1c2ccccc2nc(/C=C/c2cccnc2)n1Cc1ccccc1 ?
Response: 9.92 µM (active)

Query: So what does the record say about EC50 for CCOC(=O)C1=C(C)n2c(s/c(=C/c3cccc([N+](=O)[O-])c3)c2=O)=NC1c1ccc(O)c(OC)c1 (centres undefined) ?
Response: 1.29 µM (active)

Query: So what does the record say about EC50 for O=C1CC(CC(=O)N/N=C/c2ccccc2[N+](=O)[O-])=NN1 ?
Response: 1.85 µM (active)

Query: So what does the record say about EC50 for Cc1ccc(-c2csc(NC(=O)CSC3=NCCS3)n2)cc1 ?
Response: 3.83 µM (active)

Query: So what does the record say about EC50 for Cc1cccc(N(Cc2cc(O)nc3ccccc23)C(=O)CCl)c1 ?
Response: 1.67 µM (active)

Query: So what does the record say about EC50 for O=C1/C(=C\c2cc([N+](=O)[O-])ccc2O)SC(=S)N1Cc1ccc(Cl)cc1 ?
Response: 1.76 µM (active)

Query: So what does the record say about EC50 for O=C(c1c[nH]c(C(=O)C(Cl)(Cl)Cl)c1)c1ccccc1Cl ?
Response: 6.27 µM (active)

Query: So what does the record say about EC50 for CCCc1noc2c1C(c1ccoc1)C(C#N)=C(N)N2 (centres undefined) ?
Response: 1.06 µM (active)

====

SYSTEM: UniProt:P07900
Format: functional, organism-based
The source made the active and inactive calls.
OUTCOME MEASURE: AC50

COc1cc(/C=N/O)cc(Br)c1OCc1cccc(Cl)c1 | 7.99 µM (active)
C=C(C)COc1ccc(-c2n[nH]cc2Oc2cccc(OC)c2)c(O)c1 | 7.54 µM (active)
O=C1C=CC(=O)N1c1ccc(N2CCCCC2)cc1 | 0.554 µM (active)
Cc1cc(N2CCN(C(=O)c3ccco3)CC2)n2nc(C)c(-c3ccccc3)c2n1 | 7.93 µM (active)
CC(C)(C)c1cc(NCc2ccccn2)n2ncc(-c3ccccc3)c2n1 | 1.63 µM (active)
O=Nc1c(O)c2ccccc2c2ccccc12 | 1.03 µM (active)

Query: So what does the record say about AC50 for O=C(N/N=C/c1ccccn1)c1cc(-c2ccc(Cl)cc2)nc2ccccc12 ?
Response: 7.9 µM (active)

Query: So what does the record say about AC50 for COc1ccc(C(=O)/C=C/c2ccc(-c3ccccc3)cc2)cc1CSCC(=O)O ?
Response: 9.3 µM (active)

Query: So what does the record say about AC50 for COc1cc2c(cc1OC)C(=O)N1[C@H]3c4ccccc4OC[C@@H]3[C@H](c3ccccc3)[C@]1(C)C(=O)N2 ?
Response: 9.07 µM (active)

Query: So what does the record say about AC50 for O=C1C=CC(=O)C2C1C1(Cl)C(Cl)=C(Cl)C2(Cl)C1(Cl)Cl (stereo not given) ?
Response: 7.83 µM (active)

====

SYSTEM: Fatty acid synthase (Homo sapiens, UniProt P49327)
Sequence (P49327 whole entry, the tested form may be a part): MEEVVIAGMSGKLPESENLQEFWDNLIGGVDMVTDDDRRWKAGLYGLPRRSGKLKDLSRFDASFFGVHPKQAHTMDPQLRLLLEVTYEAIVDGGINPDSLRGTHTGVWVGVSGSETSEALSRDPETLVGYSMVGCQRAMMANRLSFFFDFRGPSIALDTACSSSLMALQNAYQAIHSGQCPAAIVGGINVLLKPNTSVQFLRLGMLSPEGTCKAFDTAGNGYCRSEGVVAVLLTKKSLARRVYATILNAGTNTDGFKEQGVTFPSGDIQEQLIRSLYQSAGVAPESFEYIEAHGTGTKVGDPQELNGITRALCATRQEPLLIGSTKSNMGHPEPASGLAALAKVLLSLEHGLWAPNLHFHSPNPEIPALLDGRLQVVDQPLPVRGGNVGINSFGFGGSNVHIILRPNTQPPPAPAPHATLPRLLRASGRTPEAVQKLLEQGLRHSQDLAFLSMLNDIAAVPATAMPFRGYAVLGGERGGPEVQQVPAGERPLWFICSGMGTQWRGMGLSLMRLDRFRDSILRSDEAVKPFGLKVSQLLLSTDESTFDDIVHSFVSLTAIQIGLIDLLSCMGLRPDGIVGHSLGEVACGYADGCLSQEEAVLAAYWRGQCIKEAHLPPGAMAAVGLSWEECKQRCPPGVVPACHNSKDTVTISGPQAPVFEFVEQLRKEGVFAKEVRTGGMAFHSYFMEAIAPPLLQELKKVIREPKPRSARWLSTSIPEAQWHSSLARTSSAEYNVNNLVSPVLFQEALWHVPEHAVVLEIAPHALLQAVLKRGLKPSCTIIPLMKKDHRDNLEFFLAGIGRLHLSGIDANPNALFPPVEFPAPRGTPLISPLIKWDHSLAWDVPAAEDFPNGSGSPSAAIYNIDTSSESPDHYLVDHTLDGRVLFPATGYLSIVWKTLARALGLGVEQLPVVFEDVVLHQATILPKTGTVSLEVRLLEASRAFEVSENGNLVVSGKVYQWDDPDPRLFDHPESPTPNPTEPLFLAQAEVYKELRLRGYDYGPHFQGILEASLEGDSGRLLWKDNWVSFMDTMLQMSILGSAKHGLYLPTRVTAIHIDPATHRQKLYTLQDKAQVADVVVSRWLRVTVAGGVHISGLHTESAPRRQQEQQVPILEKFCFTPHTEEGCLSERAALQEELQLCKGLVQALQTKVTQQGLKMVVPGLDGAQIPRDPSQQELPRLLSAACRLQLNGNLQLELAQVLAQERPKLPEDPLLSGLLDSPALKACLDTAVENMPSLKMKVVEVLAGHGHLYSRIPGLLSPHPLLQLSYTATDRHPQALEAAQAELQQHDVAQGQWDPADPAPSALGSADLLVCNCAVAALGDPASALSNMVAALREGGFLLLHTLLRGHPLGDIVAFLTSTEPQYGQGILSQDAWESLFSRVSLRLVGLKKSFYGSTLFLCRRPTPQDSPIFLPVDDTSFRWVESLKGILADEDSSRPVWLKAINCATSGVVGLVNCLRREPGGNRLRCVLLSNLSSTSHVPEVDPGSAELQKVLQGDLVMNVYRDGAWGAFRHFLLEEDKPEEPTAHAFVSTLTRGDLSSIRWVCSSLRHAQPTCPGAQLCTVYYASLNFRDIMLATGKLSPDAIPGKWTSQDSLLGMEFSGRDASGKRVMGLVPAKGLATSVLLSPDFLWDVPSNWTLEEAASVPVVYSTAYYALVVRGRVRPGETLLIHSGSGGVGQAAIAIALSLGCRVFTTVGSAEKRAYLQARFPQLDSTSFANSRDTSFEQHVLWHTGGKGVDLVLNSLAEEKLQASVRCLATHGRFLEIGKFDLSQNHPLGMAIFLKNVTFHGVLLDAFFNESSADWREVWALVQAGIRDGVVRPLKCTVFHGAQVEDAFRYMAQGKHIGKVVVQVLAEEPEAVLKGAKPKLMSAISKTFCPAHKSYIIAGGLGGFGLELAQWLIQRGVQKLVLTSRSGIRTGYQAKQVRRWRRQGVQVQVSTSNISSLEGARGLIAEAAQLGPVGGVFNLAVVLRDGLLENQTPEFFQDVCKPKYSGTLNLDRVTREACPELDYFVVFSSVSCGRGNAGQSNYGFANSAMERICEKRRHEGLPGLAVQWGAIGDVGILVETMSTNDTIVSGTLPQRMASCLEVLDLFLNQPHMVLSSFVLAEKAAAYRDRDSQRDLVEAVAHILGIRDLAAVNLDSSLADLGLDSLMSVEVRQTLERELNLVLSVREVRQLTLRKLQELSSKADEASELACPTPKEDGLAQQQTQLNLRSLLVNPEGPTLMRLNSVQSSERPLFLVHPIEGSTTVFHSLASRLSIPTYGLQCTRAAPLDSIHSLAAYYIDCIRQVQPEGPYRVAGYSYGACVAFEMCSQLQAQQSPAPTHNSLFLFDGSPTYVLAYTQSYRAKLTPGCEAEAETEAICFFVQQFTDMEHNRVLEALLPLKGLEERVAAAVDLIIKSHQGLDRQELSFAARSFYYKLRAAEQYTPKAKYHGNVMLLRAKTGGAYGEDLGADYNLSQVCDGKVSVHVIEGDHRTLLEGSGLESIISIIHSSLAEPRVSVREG
ASSAY NOTES: FAS thioesterase domain inhibitors, dose response, biochemical, endpoint fluorescence intensity, uHTS hits (AID 624327);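 further: fluorescence from hydrolysis of an O-methyl fluorescein acyl ester substrate by the enzyme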
Format: functional
Calls of active or inactive are those of the source.
IC50 reference

Solved entries (count: 3):
NC(=NOC(=O)CCC1CCCCC1)c1cccc([N+](=O)[O-])c1 | 6.09 µM (active)
Cc1cccc(NC(=O)CNC(=O)COC(=O)c2ccc(C(C)(C)C)cc2)c1C | 14.6 µM (active)
O=C(CSc1ncnc2c1cnn2-c1ccccc1)NC1CCS(=O)(=O)C1 (configuration not stated) | 7.65 µM (active)

Query: So what does the record say about IC50 for O=C(CC1C[C@H](C(=O)N2CCOCC2)[C@@]2(CCC3CCCC3)c3[nH]c4ccccc4c3CCN2C1=O)NCc1ccco1 (some centres not stated) ?
Response: 1.25 µM (active)

Query: So what does the record say about IC50 for COc1ccc(-c2nnc(SCC(=O)Nc3ncc(C(F)(F)F)cc3Cl)n2CC(C)C)cc1 ?
Response: 2.11 µM (active)

Query: So what does the record say about IC50 for O=C1C=CC(=O)C2C1C1(Cl)C(Cl)=C(Cl)C2(Cl)C1(Cl)Cl (configuration not stated) ?
Response: 14.8 µM (active)

Query: So what does the record say about IC50 for O=C(Cc1cccc(C(F)(F)F)c1)OCN1C(=O)c2ccccc2C1=O ?
Response: 16.8 µM (active)

Every entry's value here was drawn from ChEMBL document CHEMBL1201862.
